- test-name: melting temperature; fluorescence melt of hairpins on a sequencing array, two-state fit, raised by 9.35 °C to match UV melts
- measurement-conditions: sodium 0.088 M
Here, each record is paired with measured Tm data.
measured-quantity: Tm (°C)

>>> test_value("GATCGGTATACCGATC ((((((....))))))")
64.3
>>> test_value("GATCCAGTCTTGGATC ((((((....))))))")
53.5
>>> test_value("GGGTCCGAAAGGATTCCC ((((((....)))..)))")
44.1
>>> test_value("GAGCGCGAAAGCGAACTC ((((((....)))..)))")
49
>>> test_value("CGACCCGGAAACGGTTCG (((.(((....))).)))")
48.6
>>> test_value("GTACGCGAAAGCGGTAC ((((((....))).)))")
56.5
>>> test_value("GATCCCAAACGGGATC ((((((....))))))")
59.7
>>> test_value("GTAGTCCGAAAGGAGTAC (((.(((....))).)))")
54.1
>>> test_value("GATCTAGGGTTAGATC ((((((....))))))")
37.4
>>> test_value("CGATCGGAAACGATCTCG ((((((....)))..)))")
36.9
>>> test_value("GGGTCAGGAAACTGGCCC (((.(((....))).)))")
60.4
>>> test_value("GATCTGTTCCAGATC ((((((...))))))")
50.7
>>> test_value("GACTAGGGAAACCTGGTC (((.(((....))).)))")
46.7
>>> test_value("GAAGTGCGAAAGCATTTC (((.(((....))).)))")
51
>>> test_value("GTTGTCCGAAAGGAAAAC (((.(((....))).)))")
44.9
>>> test_value("GATCTGTCGCAGATC ((((((...))))))")
48.5
>>> test_value("GTCTGGCGAAAGCCCGAC (((.(((....))).)))")
52.2
>>> test_value("GCTTACTCGAAAGAGAGC (((..(((....))))))")
30.1
>>> test_value("GACGTGGGAAACCACATC ((.((((....)))).))")
34.5
>>> test_value("GGCGTCGAAAGACTCGCC ((((((....)))..)))")
50.1
>>> test_value("GGACAACGAAAGTTATCC (((.(((....))).)))")
40
>>> test_value("GGGTAAGGAAACCTACCC (((((.(....).)))))")
42.9
>>> test_value("GACAGCACGAAAGTGGTC (((..(((....))))))")
36
>>> test_value("GATCCATTCATGGATC ((((((....))))))")
59.5
>>> test_value("GCTGGGCGAAAGCCCCGC ((.((((....)))).))")
58.5
>>> test_value("GATCGAACTGTCGATC ((((((....))))))")
49.2
>>> test_value("GTCCATGCGAAAGCAGAC (((..(((....))))))")
35.3
>>> test_value("GGCATCGAAAGATGGCC ((((((....))).)))")
58.4
>>> test_value("GCAGACGAAAGTCATTGC ((((((....)))..)))")
37.1
>>> test_value("GGATTCCCGAAAGGGTCC (((..(((....))))))")
39.3
>>> test_value("GGAGCACGAAAGTGTCC (((.(((....))))))")
48.5
>>> test_value("GTCTATCGAAAGATGGAC (((.(((....))).)))")
51.7
>>> test_value("GCTGGAGGAAACTCTGGC ((..(((....)))..))")
41.6
>>> test_value("GTGATCCGAAAGGACAC (((.(((....))))))")
50.7
>>> test_value("GATCAAAGCCTTGATC ((((((....))))))")
44.1
>>> test_value("CGGAATCGGAAACGACCG (((..(((....))))))")
35.3
>>> test_value("GAGTGCGAAAGCATCCTC ((((((....)))..)))")
33
>>> test_value("GAGTACGAAAGTAGGCTC ((((((....)))..)))")
36.1
>>> test_value("GCGCTGCCGAAAGGCCGC (((..(((....))))))")
58.5
>>> test_value("GATGGCACGAAAGTGATC (((..(((....))))))")
27.2
>>> test_value("GAGCGAGCGAAAGCTCTC (((..(((....))))))")
35.5
>>> test_value("GACTAGGGAAACTTAGTC (((((.(....).)))))")
37.9
>>> test_value("GAAGTAGGAAACTACTTC (((((((....)))))))")
52.5
>>> test_value("GGGTCCGAAAGGAGACCC ((((((....)))..)))")
53.1
>>> test_value("CCGTTGAAAAACGG (((((....)))))")
54.3
>>> test_value("GAGTATGGAAACATATTC ((.((((....)))).))")
30.8
>>> test_value("GACTCCGGAAACGGAGCC (.(((((....))))).)")
50.5
>>> test_value("GCGTCCGAAAGGACCCGC ((((((....)))..)))")
44.4
>>> test_value("GGACGACGAAAGTCCTCC (((.(((....))).)))")
45.4
>>> test_value("GTTAAACCGAAAGGTAAC (((..(((....))))))")
29.9

---

- test-name: melting temperature; fluorescence melt of hairpins on a sequencing array, two-state fit, raised by 9.35 °C to match UV melts
- measurement-conditions: sodium 0.088 M
Label satisfied when Tm is strictly below 50 °C; at or above that, label not satisfied.

>>> category_label("GGATCTGGAAACAGACCC ((.((((....)))).))")
"satisfied"
>>> category_label("GCACGGCGAAAGCCCTGC (((.(((....))).)))")
"satisfied"
>>> category_label("GGCTAGTCGAAAGACGCC (((..(((....))))))")
"not satisfied"
>>> category_label("GAATCCGAAAGGAATTC ((((((....))).)))")
"satisfied"
>>> category_label("GCTTCCGAAAGGACAGC ((((((....))).)))")
"satisfied"
>>> category_label("GAAAGCGGAAACGCTTCC (.(((((....))))).)")
"satisfied"
>>> category_label("GTCGGCTCGAAAGAGGAC (((..(((....))))))")
"satisfied"
>>> category_label("GATCGGAACTCCGATC ((((((....))))))")
"not satisfied"
>>> category_label("GCACACGAAAGTGGGTGC ((((((....)))..)))")
"not satisfied"

---

- test-name: melting temperature; fluorescence melt of hairpins on a sequencing array, two-state fit, raised by 9.35 °C to match UV melts
- measurement-conditions: sodium 0.088 M
Label key: T means Tm under 50 °C; F means Tm of 50 °C or more.

>>> category_label("GACAAAGGAAACTTCGTC (((.(((....))).)))")
"T"
>>> category_label("GTTTCCGAAAGGAATAAC ((((((....)))..)))")
"T"
>>> category_label("GTGCACGGAAACGCGCAC ((((.((....)).))))")
"F"
>>> category_label("GACTAAGCGAAAGCTGTC (((..(((....))))))")
"T"
>>> category_label("GATCTTTCCTAAGATC ((((((....))))))")
"T"
>>> category_label("GAGCACGCGAAAGCGCTC (((..(((....))))))")
"T"
>>> category_label("GCGATCGAAAGATAACGC ((((((....)))..)))")
"T"
>>> category_label("GATCTCCGTGAGATC ((((((...))))))")
"F"
>>> category_label("GGGCAGCGAAAGCTCCCC (((.(((....))).)))")
"F"
>>> category_label("GAAGACGAAAGTCGGTTC ((((((....)))..)))")
"T"
>>> category_label("GAACACGAAAGTGAATTC ((((((....)))..)))")
"T"
>>> category_label("TCGGTGAAAACCGA (((((....)))))")
"F"
>>> category_label("GTAGAGACGAAAGTCTAC (((..(((....))))))")
"T"
>>> category_label("TTGATGAAAATCAA (((((....)))))")
"T"
>>> category_label("GATCTAATCCTAGATC ((((((....))))))")
"T"
>>> category_label("GCAAAGTCGAAAGACTGC (((..(((....))))))")
"T"
>>> category_label("CGTGGCGGAAACGCACG (((.(((....))))))")
"F"
>>> category_label("GATCCGTCACGGATC ((((((...))))))")
"F"
>>> category_label("GGGCTAGGAAACTGGCCC ((((.((....)).))))")
"F"
>>> category_label("GATCACCACGGTGATC ((((((....))))))")
"F"
>>> category_label("GTGGATGGAAACGTCTAC ((.((.(....).)).))")
"T"
>>> category_label("CGTTAGCGGAAACGCACG (((..(((....))))))")
"T"
>>> category_label("GAACATGAAAATGTTC ((((((....))))))")
"F"
>>> category_label("GCCGCAACGAAAGTTGGC (((..(((....))))))")
"T"

Recorded values, source the array DNA melting data of Ke et al. (doi:10.1101/2024.01.08.574731).
